System Tested: BCRP (hBCRP) (Homo sapiens, UniProt Q9UNQ0)
Construct: expressed in transfected cells; host or cells: MDCKII (canine kidney) cells, canine P-gp knockout, transfected with BCRP
Sequence (Q9UNQ0 whole entry): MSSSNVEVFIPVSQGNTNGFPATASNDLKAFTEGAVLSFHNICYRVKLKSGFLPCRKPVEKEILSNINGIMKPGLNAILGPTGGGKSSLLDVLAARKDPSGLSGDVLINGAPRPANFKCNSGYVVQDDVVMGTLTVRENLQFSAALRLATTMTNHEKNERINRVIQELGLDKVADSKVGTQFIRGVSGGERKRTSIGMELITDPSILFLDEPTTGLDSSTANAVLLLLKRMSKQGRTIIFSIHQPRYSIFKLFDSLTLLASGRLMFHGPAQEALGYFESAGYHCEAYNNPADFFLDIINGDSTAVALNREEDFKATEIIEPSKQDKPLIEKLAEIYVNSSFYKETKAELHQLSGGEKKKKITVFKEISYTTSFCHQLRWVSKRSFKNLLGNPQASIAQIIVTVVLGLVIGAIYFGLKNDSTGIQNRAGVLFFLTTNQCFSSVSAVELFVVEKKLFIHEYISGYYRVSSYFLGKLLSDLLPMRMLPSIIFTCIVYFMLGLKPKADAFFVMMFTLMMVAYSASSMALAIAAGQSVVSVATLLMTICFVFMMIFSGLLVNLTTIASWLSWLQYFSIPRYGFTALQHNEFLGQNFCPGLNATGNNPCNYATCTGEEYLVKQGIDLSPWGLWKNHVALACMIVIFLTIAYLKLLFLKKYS
Experimental Details: Efflux ratio in BCRP transfected MDCKII canine P-gp knockout cells
Type: in vitro ADME
Assay Setup: Papp(B−A)/Papp(A−B), read-out: Efflux ratio MDCKII-hBCRP knock-in,canine pg-P KO
Where a name gives a salt, the structure may show the parent alone.
Readout Type: efflux ratio at 2 h, 1 μM

Consider the reported efflux ratio at 2 h, 1 μM for these molecules:
> print(dat)
                                   molecule  value.measured
1  CSc1ccc(Nc2c3c(cc(=O)n2C)C(C)CN(OCCO)C3=O)c(F)c1 (stereo not shown) [Example 69]             2.3
2  CC1CN(OCCO)C(=O)c2c1cc(=O)n(C)c2Nc1ccc(Br)cc1F (stereo not shown) [Example 68]             2.5
3  CCc1ccc(Nc2c3c(cc(=O)n2C)CCNC3=O)c(F)c1 [Example 51]             1.2
4  CSc1ccc(Nc2c3c(cc(=O)n2C)C(C)CNC3=O)c(F)c1 (stereo not shown) [Example 67]             1.1
5  Cn1c(Nc2ccc(C3CC3)cc2F)c2c(cc1=O)CCN(OCCO)C2=O [Example 15]             2.2

a. CSc1ccc(Nc2c3c(cc(=O)n2C)CCNC3=O)c(F)c1 [Example 50, trifluoroacetate]
b. Cn1c(Nc2ccc(I)cc2F)c2c(c(Cl)c1=O)CCN(OCCO)C2=O [Example 38]
Problem: Could you tell me which of a and b has the lower efflux ratio at 2 h, 1 μM reading? Please indicate the selected item by its label.
Result: a

---

Experimental Details: MDR1 LLC-PK1 and BCRP MDCKII Permeability Assay: permeability coefficient (Papp)
Type: in vitro ADME
Assay Setup: MDCK, test article 1 μM, 37° C.
Readout Type: Papp at 2 h, 1 μM (×10⁻⁶ cm/s)

P. Cc1c2c(c(Nc3ccc(OC(F)F)cc3F)n(C)c1=O)C(=O)N(OCCO)CC2
Q. CCc1ccc(Nc2c3c(cc(=O)n2C)CCNC3=O)c(F)c1
Problem: Response body: label of entry with the larger Papp at 2 h, 1 μM; valid values P , Q . Please indicate the selected item by its label.
Result: Q
(Q: 41.2 ×10⁻⁶ cm/s, P: 26.1 ×10⁻⁶ cm/s)

---

System Tested: BCRP (hBCRP) (Homo sapiens)
Construct: expressed in transfected cells; host or cells: MDCKII (canine kidney) cells, canine P-gp knockout, transfected with BCRP
Experimental Details: Efflux ratio in BCRP transfected MDCKII canine P-gp knockout cells
Format: in vitro ADME
Assay Setup: Papp(B−A)/Papp(A−B), read-out: Efflux ratio MDCKII-hBCRP knock-in,canine pg-P KO
Readout Type: efflux ratio at 2 h, 1 μM

Consider the reported efflux ratio at 2 h, 1 μM for these molecules:
> print(dat)
                                        smi               readout.type  value.measured
1  CCc1ccc(Nc2c3c(cc(=O)n2C)CCN(OCCO)C3=O)c(F)c1  efflux ratio at 2 h, 1 μM             3.4
2  CCc1ccc(Nc2c3c(c(C)c(=O)n2C)CCNC3=O)c(F)c1  efflux ratio at 2 h, 1 μM             1.1

a. Cc1c2c(c(Nc3ccc(C4CC4)cc3F)n(C)c1=O)C(=O)NCC2
b. C[C@@H](O)CON1CCc2cc(=O)n(C)c(Nc3ccc(I)cc3F)c2C1=O
Problem: Could you tell me which of a and b has the lower efflux ratio at 2 h, 1 μM reading? Please indicate the selected item by its label.
Result: a
(a: 1.2, b: 5.2)

---

Experimental Details: MDR1 LLC-PK1 and BCRP MDCKII Permeability Assay: permeability coefficient (Papp)
Assay type: in vitro ADME
Assay Setup: MDCK, test article 1 μM, 37° C.
Readout Type: Papp at 2 h, 1 μM (×10⁻⁶ cm/s)

> print(dat)
                                   compound       readout.type  value.measured
1  CON1CCc2cc(=O)n(C)c(Nc3ccc(I)cc3F)c2C1=O [Example 29]  Papp at 2 h, 1 μM            32.8
2  Cn1c(Nc2ccc(I)cc2F)c2c(cc1=O)CCN(OCCO)C2=O [Example 8]  Papp at 2 h, 1 μM            34.2
3  Cn1c(Nc2ccc(Br)cc2F)c2c(c(Br)c1=O)CCN(OCCO)C2=O [Example 42]  Papp at 2 h, 1 μM            29.4
